Test description: Time-resolved fluorescence (fluorescence lifetime, TCSPC)
Assay type: physicochemical
Experimental context: acetonitrile, room temperature
Property measured: krad (radiative rate constant, φf×kdec)

Illustrative cases are given below, each with its answer.
CC(=O)OCC1=C2C(C)=C(Br)C(C)=[N+]2[B-](F)(F)n2c(C)c(Br)c(C)c21
9.3 ± 0.1 × 10^7 s^−1
CC1=C(I)C(C)=[N+]2C1=C(C)c1c(C)c(I)c(C)n1[B-]2(F)F
13.1 ± 0.2 × 10^7 s^−1
CC1=C(Br)C(C)=[N+]2C1=C(C)c1c(C)c(Br)c(C)n1[B-]2(F)F
11.0 ± 0.2 × 10^7 s^−1
CC(=O)OCC1=C2C(C)=C(I)C(C)=[N+]2[B-](F)(F)n2c(C)c(I)c(C)c21
12.5 ± 0.2 × 10^7 s^−1

Next up:
[in] Form field: reported krad (radiative rate constant, φf×kdec) of CC1=C(I)C(C)=[N+]2C1=C(COC(=O)C1(C)CCc3c(C)c(O)c(C)c(C)c3O1)c1c(C)c(I)c(C)n1[B-]2(F)F (racemic)
[out] 5.0 ± 0.1 × 10^7 s^−1

====

Test description: Laser flash photolysis: triplet excited state decay and quenching
Assay type: physicochemical
Experimental context: acetonitrile, argon purged
Catalogue of compounds with associated kT (triplet decay rate constant) Argon Purged

Illustrative cases are given below, each with its answer.
CC(=O)OCC1=C2C(C)=C(I)C(C)=[N+]2[B-](F)(F)n2c(C)c(I)c(C)c21
1.64 ± 0.02 × 10^4 s^−1
CC1=C(I)C(C)=[N+]2C1=C(C)c1c(C)c(I)c(C)n1[B-]2(F)F
1.68 ± 0.02 × 10^4 s^−1
CC1=C(I)C(C)=[N+]2C1=C(COC(=O)C1(C)CCc3c(C)c(O)c(C)c(C)c3O1)c1c(C)c(I)c(C)n1[B-]2(F)F (racemic)
9.16 ± 0.05 × 10^4 s^−1

[in] Form field: reported kT (triplet decay rate constant) Argon Purged of CC(=O)OCC1=C2C(C)=C(Br)C(C)=[N+]2[B-](F)(F)n2c(C)c(Br)c(C)c21
[out] 2.72 ± 0.03 × 10^4 s^−1

[in] Form field: reported kT (triplet decay rate constant) Argon Purged of CC1=C(Br)C(C)=[N+]2C1=C(C)c1c(C)c(Br)c(C)n1[B-]2(F)F
[out] 2.70 ± 0.02 × 10^4 s^−1

====

Test description: Laser flash photolysis: triplet excited state decay and quenching
Type: physicochemical
Experimental context: T-T absorption at 430 nm or 550 nm, argon saturated solutions
Property measured: Triplet decay rate constant kT (s⁻¹)

Illustrative cases are given below, each with its answer.
CC(=O)OCC1=C2C(C)=C(Br)C(C)=[N+]2[B-](F)(F)n2c(C)c(Br)c(C)c21
27000
CC(=O)OCC1=C2C(C)=C(I)C(C)=[N+]2[B-](F)(F)n2c(C)c(I)c(C)c21
17000

(A) CC1=C(Br)C(C)=[N+]2C1=C(C)c1c(C)c(Br)c(C)n1[B-]2(F)F
(B) CC1=C(I)C(C)=[N+]2C1=C(C)c1c(C)c(I)c(C)n1[B-]2(F)F
[in] Sort A and B by Triplet decay rate constant kT descending and give the first. Let me know the label of the one you choose.
[out] A
(A: 27000 s⁻¹, B: 17000 s⁻¹)
